- System: MS2 coat protein
- assay.comment: apparent Kd, MS2 coat protein; higher = weaker binding; RNA-MaP array
- applied.conditions: ligand present: flavin mononucleotide; designed as: ON switch for flavin mononucleotide
assay.endpoint: apparent Kd (nM)
Give the quantity in nM, number only.

Answered cases to consult:
[
  {
    "sequence.string": "GAGGCAACGAUGGAGGAUAUACUAGGUAAUACAUGAGGAUCACCCAUGUGAGAAAGAGAGUACAUGUAGAAGGCCAGAUAUGCGGU",
    "apparent Kd [nM]": 11.8
  },
  {
    "sequence.string": "UAUGGACAUGAGGAUCACCCAUGUGGUAGAUGCUUAGGAUAUUAGACAGGAUACAUGUACUAAGAAGGAAGAUGGU",
    "apparent Kd [nM]": 102
  },
  {
    "sequence.string": "UGCCUAUACCGAGGAUAUUACGUCAGAUGUGUGUAAGAAGGCGGGUUCCGAUCAACAUGAGGAUCACCCAUGUAUCUUUACGGC",
    "apparent Kd [nM]": 8.72
  },
  {
    "sequence.string": "GUACUGCAGUUAGGAUAUACCGGAGGAUUAUACACCUACUAACAUGAGGAUCACCCAUGUCUCUCGUAGAAGGAACAUAUUAGC",
    "apparent Kd [nM]": 16.5
  }
]

Requested field: apparent Kd. Item: `AACUAAAACGAUAGUCGACAUGAGGAUCACCCAUGUACAAAACAGGAUAUAAGAUUACCGGUGUGUAAGAAGGGUUUGCUAUCA`
12.6

Lookup `UCCAGCAACGAGAAGGUACACAUGAGGAUCACCCAUGUCCGUUGACCGUCUCCAUGGGCGAUGGGUAAGGAUAUCGGGCAGAUG`
49.4

Lookup `CAUGCUAACAUGAGGAUCACCCAUGUUCCGGCGUAAACUGCACAGGAUAUCGAGAAUUUACAAGCCGAGAAGGGUGCGUAGCAU`
71.7

Lookup `ACAUGAGGAUCACCCAUGUUUUAUUCGAACUGGAAAUGACGUCAGGAUAUCACAAAUAGCAGCAAUGAGAAGGGACUAUAUAUG`
8.79

Lookup `CACGCGGAGUUAGGAUAUAACGAUUGUCAGCCGUUAGAAGGAACCCAUCGCAAAUCUACGUCUAACAUGAGGAUCACCCAUGUU`
5.7

Lookup `GAGCGACUAUGAGAUUGGACAUGAGGAUCACCCAUGUGAGACAGAAGGGCCUUGGCGCCCGUGAGGCAGGAUAUGUACCAAGCA`
19.6

Lookup `AGGUGUCCAGGAGGAUAUGAUUGCAACACGCCCUCAGAAGGCCUUAUAUACAAAGCAUACAUGAGGAUCACCCAUGUAAUUGGA`
9.11

Lookup `AAACAUGCGUGAGAGGAUAUGUCAUUAAUAACAUGAGGAUCACCCAUGUUCGAUGAUUGAAAUAAACAGAAGGCUCCGGUCUGUAA`
18.7
